All values here come from patent US9199965B2.

TEST SYSTEM: human vanilloid-1 (hVR1) (Homo sapiens, UniProt Q8NER1)
Sequence (Q8NER1 whole entry): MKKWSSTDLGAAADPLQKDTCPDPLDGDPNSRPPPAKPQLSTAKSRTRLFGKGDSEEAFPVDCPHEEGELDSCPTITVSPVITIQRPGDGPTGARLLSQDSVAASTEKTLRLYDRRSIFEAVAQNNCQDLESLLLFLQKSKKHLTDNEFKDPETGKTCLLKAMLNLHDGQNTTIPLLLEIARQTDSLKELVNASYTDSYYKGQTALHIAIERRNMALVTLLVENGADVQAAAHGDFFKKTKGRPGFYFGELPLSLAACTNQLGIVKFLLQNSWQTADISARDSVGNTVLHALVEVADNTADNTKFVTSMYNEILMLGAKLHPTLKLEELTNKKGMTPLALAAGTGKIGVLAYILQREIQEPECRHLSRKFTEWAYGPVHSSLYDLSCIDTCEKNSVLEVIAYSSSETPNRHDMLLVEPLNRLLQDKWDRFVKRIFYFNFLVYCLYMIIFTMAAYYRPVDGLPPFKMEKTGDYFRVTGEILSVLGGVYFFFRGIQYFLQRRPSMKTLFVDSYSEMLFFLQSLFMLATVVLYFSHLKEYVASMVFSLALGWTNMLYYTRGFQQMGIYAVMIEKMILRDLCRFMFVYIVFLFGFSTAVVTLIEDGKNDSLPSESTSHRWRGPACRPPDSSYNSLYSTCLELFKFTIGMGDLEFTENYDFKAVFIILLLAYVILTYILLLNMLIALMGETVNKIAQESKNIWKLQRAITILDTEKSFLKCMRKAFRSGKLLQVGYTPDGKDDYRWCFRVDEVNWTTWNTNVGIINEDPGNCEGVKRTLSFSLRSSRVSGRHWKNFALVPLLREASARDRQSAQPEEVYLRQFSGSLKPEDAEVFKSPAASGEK
EXPERIMENTAL DETAILS: Calcium influx of vanilloid receptor in hVR1-HEK293 cells (capsaicin-induced, Fluo-3/AM)
CONDITIONS: 1 μM capsaicin-induced intracellular calcium influx, read-out: Inhibitory Activity IC50
Description: Experiments for calcium influx were performed to measure the activity of the compounds as antagonists. The cell strain hVR1-HEK293 is the human embryonic kidney (HEK) 293 Tet-on cell transfected with a human vanilloid-1 gene (pTRE2hyg-hVR1, 7.8 kb), which is capable of controlling the expression of VR1 according to the administration of deoxycycline, a tetracycline derivative analog. […]
OBSERVATION TYPE: IC50 (nM)

Below, each entry is followed by its recorded IC50 result.
FC(F)(F)c1cc(C(F)(F)F)c2nc(-c3ccc(-c4ncccc4Cl)cn3)[nH]c2c1 = 38
FC(F)(F)c1cc(C(F)(F)F)c2nc(-c3ccc(-c4ncccc4C(F)(F)F)cn3)[nH]c2c1 = 14

(I) Clc1cc2nc(-c3ccc(-c4ccccn4)c(Cl)c3)[nH]c2cc1Cl
(II) FC(F)(F)c1cccnc1-c1ccc(-c2nc3cc(Cl)c(Cl)cc3[nH]2)cc1
In: Looking only at measured IC50, which entry is lower, I or II ? Give the label of your selection.
Out: II
